These data points were gathered from ChEMBL document CHEMBL5252671.

Below: a set of entries, each annotated with reported TGI.
- Test system: T47D
- test-summary: Anticancer activity against human T47D cells measured at 48 hrs
- Assay type: functional

[
  {
    "line-notation": "Cc1ccc(-c2nc3nc(-c4ccc(Br)cc4)nc(N4CCCNCC4)c3o2)cc1",
    "TGI / µM": 13.9
  },
  {
    "line-notation": "c1ccc(-c2nc(N3CCCNCC3)c3nc(-c4ccccc4)oc3n2)cc1",
    "TGI / µM": 3.64
  },
  {
    "line-notation": "c1ccc(-c2nc(N3CCNCC3)c3nc(-c4ccccc4)oc3n2)cc1",
    "TGI / µM": 4.19
  },
  {
    "line-notation": "Cc1ccc(-c2nc(N3CCCNCC3)c3oc(-c4ccc(C)cc4)nc3n2)cc1",
    "TGI / µM": 4.17
  }
]

* * *

- Tested on: MDA-MB-468
- test-summary: Anticancer activity against human MDA-MB-468 cells measured at 48 hrs
- Format: functional
In plain terms, low LC50 (concentration giving 50% net cell kill), meaning strictly below 7 µM, gives MET, and everything else gives NOT MET.

[
  {
    "line-notation": "Cc1ccc(-c2nc(N3CCNCC3)c3oc(-c4ccc(C)cc4)nc3n2)cc1",
    "class": "NOT MET"
  },
  {
    "line-notation": "Cc1ccc(-c2nc(N3CCCNCC3)c3oc(-c4ccccc4)nc3n2)cc1",
    "class": "MET"
  },
  {
    "line-notation": "Cc1ccc(-c2nc3nc(-c4ccc(Cl)cc4)nc(N4CCCNCC4)c3o2)cc1",
    "class": "MET"
  },
  {
    "line-notation": "Cc1ccc(-c2nc3nc(-c4ccc(Br)cc4)nc(N4CCCNCC4)c3o2)cc1",
    "class": "NOT MET"
  },
  {
    "line-notation": "c1ccc(-c2nc(N3CCCNCC3)c3oc(-c4ccccc4)nc3n2)cc1",
    "class": "MET"
  },
  {
    "line-notation": "Cc1ccc(-c2nc(N3CCNCC3)c3oc(-c4ccccc4)nc3n2)cc1",
    "class": "NOT MET"
  },
  {
    "line-notation": "Cc1ccc(-c2nc3nc(-c4ccccc4)nc(N4CCNCC4)c3o2)cc1",
    "class": "MET"
  },
  {
    "line-notation": "Cc1ccc(-c2nc3nc(-c4ccc(F)cc4)nc(N4CCCNCC4)c3o2)cc1",
    "class": "MET"
  },
  {
    "line-notation": "Cc1ccc(-c2nc3nc(-c4ccc(F)cc4)nc(N4CCNCC4)c3o2)cc1",
    "class": "MET"
  },
  {
    "line-notation": "c1ccc(-c2nc(N3CCCNCC3)c3nc(-c4ccccc4)oc3n2)cc1",
    "class": "MET"
  }
]

* * *

- Tested on: MDA-MB-468
- test-summary: Anticancer activity against human MDA-MB-468 cells measured at 48 hrs
- Assay type: functional
observed-property: GI50 (nM)

[
  {
    "line-notation": "Cc1ccc(-c2nc3nc(-c4ccc(Br)cc4)nc(N4CCCNCC4)c3o2)cc1",
    "numeric-readout": 3980
  },
  {
    "line-notation": "Cc1ccc(-c2nc3nc(-c4ccc(F)cc4)nc(N4CCNCC4)c3o2)cc1",
    "numeric-readout": 1740
  },
  {
    "line-notation": "c1ccc(-c2nc(N3CCCNCC3)c3nc(-c4ccccc4)oc3n2)cc1",
    "numeric-readout": 1720
  },
  {
    "line-notation": "Cc1ccc(-c2nc3nc(-c4ccccc4)nc(N4CCCNCC4)c3o2)cc1",
    "numeric-readout": 1590
  },
  {
    "line-notation": "c1ccc(-c2nc(N3CCNCC3)c3nc(-c4ccccc4)oc3n2)cc1",
    "numeric-readout": 1930
  },
  {
    "line-notation": "Cc1ccc(-c2nc3nc(-c4ccc(Cl)cc4)nc(N4CCCNCC4)c3o2)cc1",
    "numeric-readout": 1780
  },
  {
    "line-notation": "Cc1ccc(-c2nc(N3CCCNCC3)c3oc(-c4ccccc4)nc3n2)cc1",
    "numeric-readout": 1550
  },
  {
    "line-notation": "Cc1ccc(-c2nc3nc(-c4ccccc4)nc(N4CCNCC4)c3o2)cc1",
    "numeric-readout": 290
  },
  {
    "line-notation": "c1ccc(-c2nc(N3CCCNCC3)c3oc(-c4ccccc4)nc3n2)cc1",
    "numeric-readout": 1480
  },
  {
    "line-notation": "Cc1ccc(-c2nc(N3CCCNCC3)c3oc(-c4ccc(C)cc4)nc3n2)cc1",
    "numeric-readout": 1960
  },
  {
    "line-notation": "Cc1ccc(-c2nc3nc(-c4ccc(F)cc4)nc(N4CCCNCC4)c3o2)cc1",
    "numeric-readout": 1580
  },
  {
    "line-notation": "Cc1ccc(-c2nc(N3CCNCC3)c3oc(-c4ccc(C)cc4)nc3n2)cc1",
    "numeric-readout": 2130
  },
  {
    "line-notation": "c1ccc(-c2nc(N3CCNCC3)c3oc(-c4ccccc4)nc3n2)cc1",
    "numeric-readout": 1730
  },
  {
    "line-notation": "Cc1ccc(-c2nc(N3CCNCC3)c3oc(-c4ccccc4)nc3n2)cc1",
    "numeric-readout": 1810
  }
]
